# Measured Target: T1, cynomolgus monkey BCMA (cynomolgus monkey, UniProt A0A2K5UD97 1-53)
# T1 construct: Soluble analyte in SPR; construct not described; also called cyBCMA; Cyno BCMA
# T1 sequence (A0A2K5UD97 entry or part of it): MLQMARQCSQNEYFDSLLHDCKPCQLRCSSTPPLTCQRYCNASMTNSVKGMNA
# Experiment Notes: SPR, IgG on chip, cyBCMA analyte, 37C
Measured Metric: T½ (min)
Write down the numeric answer in min and omit the unit.

>  <Binder>
L3.PY/L3.KY/H2.QL (antibody, V domains shown, IgG) VH: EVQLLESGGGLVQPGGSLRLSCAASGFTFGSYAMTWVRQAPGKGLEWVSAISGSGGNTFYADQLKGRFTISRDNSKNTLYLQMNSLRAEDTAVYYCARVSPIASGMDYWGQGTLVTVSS VL: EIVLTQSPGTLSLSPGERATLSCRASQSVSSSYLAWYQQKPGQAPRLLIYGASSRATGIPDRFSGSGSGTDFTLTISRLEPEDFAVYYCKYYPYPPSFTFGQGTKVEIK

>  <Measure Unit>
min

>  <T½>
2.83

$$$$
>  <Binder>
L3.PY/L1.PH/H3.AE (antibody, V domains shown, IgG) VH: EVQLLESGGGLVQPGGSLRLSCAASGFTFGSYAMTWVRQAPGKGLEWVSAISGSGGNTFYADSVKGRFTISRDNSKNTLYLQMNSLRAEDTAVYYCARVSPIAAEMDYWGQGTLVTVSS VL: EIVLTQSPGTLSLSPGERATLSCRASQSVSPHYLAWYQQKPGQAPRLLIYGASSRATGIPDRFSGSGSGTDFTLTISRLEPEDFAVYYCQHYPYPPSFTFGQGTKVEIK

>  <Measure Unit>
min

>  <T½>
5.72

$$$$

Let us move to another entry and its T½.
Value lookup for T½; key = L3.PY/L3.KY/H2.YQ (antibody, V domains shown, IgG) VH: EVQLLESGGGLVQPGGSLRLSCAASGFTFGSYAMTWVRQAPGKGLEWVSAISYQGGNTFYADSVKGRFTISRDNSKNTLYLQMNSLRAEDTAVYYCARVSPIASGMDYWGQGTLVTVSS VL: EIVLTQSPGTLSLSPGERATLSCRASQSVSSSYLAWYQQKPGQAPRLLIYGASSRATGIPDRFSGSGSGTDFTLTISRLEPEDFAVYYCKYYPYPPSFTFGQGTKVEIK 4.47
